B1: library; a variant is named by its letters at N, in order (parent)
chain: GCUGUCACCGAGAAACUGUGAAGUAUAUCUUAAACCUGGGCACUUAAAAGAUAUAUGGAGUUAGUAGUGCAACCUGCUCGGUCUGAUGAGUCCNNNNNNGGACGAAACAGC

Variants of: B1
assay_name: normalized RNA/DNA level without ligand (relative to sTRSVctl = 100) (log10 (% of sTRSVctl)); HEK293T; ligand: cyclic di-GMP (c-di-GMP-II aptamer); higher = less ribozyme self-cleavage, higher mRNA level
stated_conditions: reporter: mCherry (pCS4076), ligand present: no
experimental_endpoint: normalized RNA/DNA level without ligand (log10)
Returns: the value as a bare number; no unit string appended.

Worked examples, 2 variants total:
1) ACAGCU | 1.55
2) ACCUUG | 1.7

Reported normalized RNA/DNA level without ligand (log10) of UUGGGG : 1.61

According to the records, this variant GCAGUG displays normalized RNA/DNA level without ligand (log10) of 1.74

Sure, the documented normalized RNA/DNA level without ligand (log10) for CUCUAU is 1.61

Reported normalized RNA/DNA level without ligand (log10) of ACAAAU : 1.37

The variant listed as GUAGCU shows normalized RNA/DNA level without ligand (log10) equal to 1.74
